# Assay System: Aldehyde dehydrogenase, mitochondrial (Homo sapiens) (UniProt P05091)
# Protocol Text: qHTS for Inhibitors of the Aldehyde Dehydrogenase Family (ALDH2) Primary screen (AID 2061308); note: nearly all actives have a fitted effect of over 55% in size
# Condition Description: ALDH2 enzyme inhibition qHTS, 1536-well; series mostly up to 56 µM
Inconclusive results are not listed. Active and inactive are the calls of the source. Calls come from the whole dose curve; as a rule, active = well fitted inhibition curve with a large enough effect; inconclusive = small, poorly fitted or top-dose-only effect; inactive = flat fitted curve, though single readings scatter.
Measured Quantity: outcome

In [3]: df
Out[3]:
                                   compound  measured_quantity  reported_result
0  COCCN(CCOC)c1nc(C)nc2c1nc(-c1ccccc1)n2CCCN1CCCCC1C (centres undefined)            outcome         inactive
1  O=C1CCCC2CC(Nc3nc4ccccc4o3)CC(c3ccccc3)C12 (centres undefined)            outcome         inactive
2  CC[C@H](C)[C@H](NC(=O)[C@H]([C@@H](C)CC)N(C)C(C)=O)C(=O)N[C@H](C(=O)N[C@@H](CC(C)C)C(=O)[C@@]1(C)CO1)[C@@H](C)O            outcome         inactive
3  CN1CCOc2cc(S(=O)(=O)N3CCN(S(=O)(=O)c4c(F)cccc4F)CC3)cnc21            outcome         inactive
